- target.system: SMARCA2 (Homo sapiens)
- Sequence (P51531 whole entry): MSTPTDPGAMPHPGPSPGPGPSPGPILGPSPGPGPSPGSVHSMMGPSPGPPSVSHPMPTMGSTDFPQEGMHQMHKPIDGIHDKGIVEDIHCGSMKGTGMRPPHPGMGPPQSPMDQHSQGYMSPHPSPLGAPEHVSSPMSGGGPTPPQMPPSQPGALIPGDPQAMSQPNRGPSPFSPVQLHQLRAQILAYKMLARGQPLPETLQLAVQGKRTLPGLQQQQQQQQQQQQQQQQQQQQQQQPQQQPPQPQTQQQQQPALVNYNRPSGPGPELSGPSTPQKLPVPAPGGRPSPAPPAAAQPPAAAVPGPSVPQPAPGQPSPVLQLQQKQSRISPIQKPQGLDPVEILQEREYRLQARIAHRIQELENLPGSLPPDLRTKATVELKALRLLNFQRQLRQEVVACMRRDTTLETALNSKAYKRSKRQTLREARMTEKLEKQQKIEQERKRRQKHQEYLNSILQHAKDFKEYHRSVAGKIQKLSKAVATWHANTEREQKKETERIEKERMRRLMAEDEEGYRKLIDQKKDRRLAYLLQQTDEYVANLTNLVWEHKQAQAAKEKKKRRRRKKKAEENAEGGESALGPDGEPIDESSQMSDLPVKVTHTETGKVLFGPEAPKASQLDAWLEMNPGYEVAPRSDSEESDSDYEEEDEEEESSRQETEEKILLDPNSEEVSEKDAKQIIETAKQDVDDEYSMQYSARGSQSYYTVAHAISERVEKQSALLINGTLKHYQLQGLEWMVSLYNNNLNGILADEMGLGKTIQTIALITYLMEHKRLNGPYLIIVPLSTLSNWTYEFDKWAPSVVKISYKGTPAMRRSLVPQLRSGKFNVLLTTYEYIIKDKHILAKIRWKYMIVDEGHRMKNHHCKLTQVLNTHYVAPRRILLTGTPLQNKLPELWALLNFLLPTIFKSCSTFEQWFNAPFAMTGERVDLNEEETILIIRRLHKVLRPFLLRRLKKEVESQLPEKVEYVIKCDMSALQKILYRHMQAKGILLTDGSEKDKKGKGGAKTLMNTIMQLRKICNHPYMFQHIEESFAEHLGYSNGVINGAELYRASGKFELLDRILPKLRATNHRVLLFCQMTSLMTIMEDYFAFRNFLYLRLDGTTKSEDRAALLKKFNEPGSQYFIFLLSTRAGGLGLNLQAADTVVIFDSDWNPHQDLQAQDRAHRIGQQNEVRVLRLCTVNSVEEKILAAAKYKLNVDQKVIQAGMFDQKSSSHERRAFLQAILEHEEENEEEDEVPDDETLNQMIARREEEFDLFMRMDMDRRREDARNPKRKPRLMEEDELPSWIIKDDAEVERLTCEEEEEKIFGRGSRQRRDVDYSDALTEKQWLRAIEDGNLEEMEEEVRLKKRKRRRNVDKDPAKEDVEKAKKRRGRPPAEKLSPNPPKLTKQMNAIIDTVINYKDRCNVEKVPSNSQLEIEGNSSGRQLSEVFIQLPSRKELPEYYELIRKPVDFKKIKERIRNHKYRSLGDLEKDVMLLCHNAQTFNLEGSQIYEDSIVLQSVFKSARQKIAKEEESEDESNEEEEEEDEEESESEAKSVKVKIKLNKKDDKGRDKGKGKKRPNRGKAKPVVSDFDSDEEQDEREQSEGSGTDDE
- procedure.details: MSD SMARCA2 degradation in A549 cell line
- Type: cell-based
- protocol.conditions: A549 cells, 24 h, read-out: SMARCA2 MSD A549 degradation 24 h: Average external-Abs DC50
For each of the compounds below, state its DC50.

Worked set:
Measured DC50, Cc1ncsc1-c1ccc(CNC(=O)[C@@H]2C[C@@H](O)CN2C(=O)[C@@H](NC(=O)[C@H]2CC[C@@H](Cc3cnc(N4C5CCC4CN(c4cc(-c6ccccc6O)nnc4N)C5)nc3)CC2)C(C)(C)C)c(C(F)(F)F)c1 [I-421] : 100 to 500 nM

Sample Cc1ncsc1-c1ccc(CNC(=O)[C@@H]2C[C@@H](O)CN2C(=O)[C@@H](NC(=O)[C@H]2CC[C@@H](Cc3cnc(N4C5CCC4CN(c4cc(-c6ccccc6O)nnc4N)C5)nc3)CC2)C(C)(C)C)cc1 [I-367] ; DC50 observed: < 100 nM

What the record says about Cc1ncsc1-c1ccc(CNC(=O)[C@@H]2C[C@@H](O)CN2C(=O)[C@@H](NC(=O)[C@H]2C[C@@]3(C2)C[C@H](c2ccc(CN4CCC(Cn5cc(-c6cc(-c7ccccc7O)nnc6N)cn5)CC4)cc2)C3)C(C)(C)C)cc1 (stereo partly shown) [I-434] : DC50 is < 100 nM

What the record says about Nc1nnc(-c2ccccc2O)cc1N1CC2CCC(C1)N2c1ncc(C2CCN(CCCCCNC(=O)COc3ccc4c(c3)CCCN4C(=O)CCl)CC2)cn1 [I-524] : DC50 is > 1000 nM

The reported value for Cc1ncsc1-c1ccc(CNC(=O)[C@@H]2C[C@@H](O)CN2C(=O)[C@@H](NC(=O)c2ccc(CN3CCC(c4cnc(N5C6CCC5CN(c5cc(-c7ccccc7O)nnc5N)C6)nc4)CC3)cc2)C(C)(C)C)cc1 [I-348] in terms of DC50 is < 100 nM

Sample CN(Cc1ccc(C#Cc2cc(NC(=O)Nc3cc(F)ncc3CO)ccn2)cc1)C1CCN(C(=O)c2cccc3c2n(C)c(=O)n3C2CCC(=O)NC2=O)CC1 (stereo not shown) [I-311] ; DC50 observed: > 1000 nM

I have 7 compounds here; please give me DC50 for each one.
1. Cc1ncsc1-c1ccc(CNC(=O)[C@@H]2C[C@@H](O)CN2C(=O)[C@@H](NC(=O)C2CC(N3CCC(n4cc(-c5cc(-c6ccccc6O)nnc5N)cn4)CC3)C2)C(C)(C)C)cc1 (stereo partly shown) [I-484]
2. CC(=O)O[C@@H]1C[C@@H](C(=O)NCc2ccc(-c3scnc3C)cc2)N(C(=O)[C@@H](NC(=O)[C@H]2CC[C@H](c3cnc(N4C5CCC4CN(c4cc(-c6ccccc6O)nnc4N)C5)nc3)CC2)C(C)(C)C)C1 [I-408]
3. Cc1ncsc1-c1ccc(CNC(=O)[C@@H]2C[C@@H](O)CN2C(=O)[C@@H](NC(=O)CN(C)CC#Cc2cnc(N3C4CCC3CN(c3cc(-c5ccccc5O)nnc3N)C4)nc2)C(C)(C)C)cc1 [I-495]
4. Cc1ncsc1-c1ccc(CNC(=O)[C@@H]2C[C@@H](O)CN2C(=O)[C@@H](NC(=O)CCCCCCCNCc2cccc(C#Cc3cc(NC(=O)Nc4cc(F)ncc4CO)ccn3)c2)C(C)(C)C)cc1 [I-490]
5. Cc1ncsc1-c1ccc(CNC(=O)[C@@H]2C[C@@H](O)CN2C(=O)[C@@H](NC(=O)CCCN2CCN(Cc3ccc(-c4cc(-c5ccccc5O)nnc4N)cc3)CC2)C(C)(C)C)cc1 [I-475]
6. Cn1c(=O)n(C2CCC(=O)NC2=O)c2ccc(CCCCCCCc3nccc(N4C5CCC4CN(c4cc(-c6ccccc6O)nnc4N)C5)n3)cc21 (stereo not shown) [I-287]
7. Cc1ncsc1-c1ccc(CNC(=O)[C@@H]2C[C@@H](O)CN2C(=O)[C@@H](NC(=O)C2CC3(C2)CC(N2CCC(c4cnc(N5C6CCC5CN(c5cc(-c7ccccc7O)nnc5N)C6)nc4)CC2)C3)C(C)(C)C)cc1 (stereo partly shown) [I-414]

1. 100 to 500 nM
2. < 100 nM
3. 100 to 500 nM
4. > 1000 nM
5. > 1000 nM
6. 100 to 500 nM
7. 100 to 500 nM
